SYSTEM: recombinant mTOR (Homo sapiens, UniProt P42345)
Sequence (P42345 1362-2549): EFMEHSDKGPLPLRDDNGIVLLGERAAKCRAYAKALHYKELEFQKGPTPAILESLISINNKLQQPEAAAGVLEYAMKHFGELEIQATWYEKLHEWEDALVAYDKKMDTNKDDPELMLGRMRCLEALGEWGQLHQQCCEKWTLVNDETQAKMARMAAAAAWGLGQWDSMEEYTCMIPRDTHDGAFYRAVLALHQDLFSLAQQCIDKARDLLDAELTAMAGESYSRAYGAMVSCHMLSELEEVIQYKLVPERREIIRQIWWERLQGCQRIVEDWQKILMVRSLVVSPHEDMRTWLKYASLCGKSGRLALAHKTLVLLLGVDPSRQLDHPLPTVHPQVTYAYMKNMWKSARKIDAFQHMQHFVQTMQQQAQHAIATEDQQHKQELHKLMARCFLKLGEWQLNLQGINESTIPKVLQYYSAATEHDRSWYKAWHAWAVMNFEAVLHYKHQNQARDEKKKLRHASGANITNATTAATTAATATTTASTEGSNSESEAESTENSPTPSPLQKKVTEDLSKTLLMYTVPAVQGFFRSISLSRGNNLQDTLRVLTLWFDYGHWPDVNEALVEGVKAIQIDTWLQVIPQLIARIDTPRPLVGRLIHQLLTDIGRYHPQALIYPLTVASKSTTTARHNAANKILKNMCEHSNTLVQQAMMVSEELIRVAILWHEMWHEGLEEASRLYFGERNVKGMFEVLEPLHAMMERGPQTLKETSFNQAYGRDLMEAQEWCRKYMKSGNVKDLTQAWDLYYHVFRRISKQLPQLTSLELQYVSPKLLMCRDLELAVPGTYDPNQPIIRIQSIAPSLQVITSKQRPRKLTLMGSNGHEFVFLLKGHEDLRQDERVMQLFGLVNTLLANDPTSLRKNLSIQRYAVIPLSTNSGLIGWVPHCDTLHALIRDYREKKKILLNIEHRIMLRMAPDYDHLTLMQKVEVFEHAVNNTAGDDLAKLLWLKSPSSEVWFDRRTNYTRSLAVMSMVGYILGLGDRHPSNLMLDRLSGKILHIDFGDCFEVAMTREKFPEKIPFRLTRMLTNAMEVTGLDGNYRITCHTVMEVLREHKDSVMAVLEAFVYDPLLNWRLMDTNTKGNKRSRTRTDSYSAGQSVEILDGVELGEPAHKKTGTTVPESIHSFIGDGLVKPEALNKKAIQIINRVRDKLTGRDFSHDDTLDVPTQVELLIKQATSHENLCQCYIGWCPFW
RUN DESCRIPTION: In Vitro mTOR Kinase Assay, Test (a)(i) (AlphaScreen)
Type: biochemical
CONDITION INFO: read-out: IC50 versus mTOR kinase
READOUT KIND: IC50 (nM)
Please give a number only; it is taken to be in nM.

Req: What does the record list as IC50 for C[C@H]1COCCN1c1cc(CS(C)(=O)=O)nc(-c2ccc(NC(=S)Nc3ccccc3)cc2)n1 ?
Resp: 550

Reference source: patent US8138183B2
